- subject_of_test: sGC α1/β1 heterodimer (Homo sapiens (Human), UniProt Q02108+Q02153)
- assay_explanation: Cell-based sGC functional assay (CASA assay), cGMP by HTRF
- condition_label: CHO-K1, cGMP production as percentage of maximum of compound A (set to 100%); CHO-K1/sGC cells; read-out: % Activation
endpoint: Emax (%)

| compound | subject_of_test | unit_descriptor | Emax |
| --- | --- | --- | --- |
| CC1(c2cc(O)c(Cl)cn2)C(=O)Nc2nc(-c3cn4ccnc4c(Cc4cccc(F)c4)n3)nc(N)c21 (stereo not drawn) | sGC α1/β1 heterodimer (Homo sapiens (Human), UniProt Q02108+Q02153) | % | 88 |
| CC1(c2ccc(Cl)c(O)c2)C(=O)Nc2nc(-c3cn4ccnc4c(Cc4ccc(F)cc4)n3)nc(NCC(O)C(F)(F)F)c21 (single isomer, unassigned) | sGC α1/β1 heterodimer (Homo sapiens (Human), UniProt Q02108+Q02153) | % | 99 |
| CC1(c2ccc(O)c(F)c2)C(=O)Nc2nc(-c3cn4ccnc4c(CCC4CCCCC4)n3)nc(N)c21 (stereo not drawn) | sGC α1/β1 heterodimer (Homo sapiens (Human), UniProt Q02108+Q02153) | % | 121 |

###

- subject_of_test: sGC α1/β1 heterodimer (Homo sapiens (Human), UniProt Q02108+Q02153)
- assay_explanation: Cell-based sGC functional assay (CASA assay), cGMP by HTRF
- condition_label: CHO-K1, cGMP production as percentage of maximum of compound A (set to 100%); CHO-K1/sGC cells; read-out: % Activation
endpoint: Emax (%)

Before answering, review these 10 worked examples.
| molecule | Emax (%) |
| --- | --- |
| CC1(c2cc(O)c(C#N)c(F)c2)C(=O)Nc2nc(-c3cn4ncnc4c(CC4CCCCC4)n3)nc(N)c21 (centres unmarked) [Example 15-B] | 107 |
| CC1(c2cc(O)c(C(F)(F)F)cn2)C(=O)Nc2nc(-c3cn4ccnc4c(CC4CCCCC4)n3)nc(N)c21 (centres unmarked) [Example 147-B] | 102 |
| CC1(c2ccc(F)c(O)c2)C(=O)Nc2nc(-c3cn4ncnc4c(CCC(F)(F)C(F)(F)F)n3)nc(N)c21 (racemic) [Example 114-B] | 112 |
| CC1(c2cc(Cl)c(O)cn2)C(=O)Nc2nc(-c3cn4ccnc4c(Cc4ccccc4F)n3)nc(N)c21 (single isomer, unassigned) [Example 104-B] | 144 |
| CC1(c2ccc(Cl)c(O)c2)C(=O)Nc2nc(-c3cn4ncnc4c(CCC(F)(F)C(F)(F)F)n3)nc(N)c21 (centres unmarked) [Example 88-A] | 95 |
| CC1(c2ccc(Cl)c(O)c2)C(=O)Nc2nc(-c3cn4ccnc4c(Cc4cc(F)ccc4F)n3)nc(N)c21 (centres unmarked) [Example 19-A] | 152 |
| CC1(c2ccc(O)cc2)C(=O)Nc2nc(-c3cn4ccnc4c(CCC4CCCCC4)n3)nc(N)c21 (centres unmarked) [Example 85-B] | 130 |
| CC1CCC(Cc2nc(-c3nc(N)c4c(n3)NC(=O)C4(C)c3ccc(O)c(Cl)c3)cn3ccnc23)CC1 (single isomer, unassigned) [Example 120-BA] | 133 |
| CCCCc1nc(-c2nc(N)c3c(n2)NC(=O)C3(C)c2ccc(Cl)c(O)c2)cn2ncnc12 (centres unmarked) [Example 50-A] | 175 |
| CC1(c2cc(O)c(Cl)cn2)C(=O)Nc2nc(-c3cn4ccnc4c(Cc4cc(F)cc(F)c4F)n3)nc(N)c21 (centres unmarked) [Example 103-B] | 78 |

P. CC1(c2cc(Cl)c(O)c(Cl)c2)C(=O)Nc2nc(-c3cn4ncnc4c(CC4CCCCC4)n3)nc(N)c21 (centres unmarked) [Example 112-B]
Q. CC1(c2cc(O)c(C#N)c(F)c2)C(=O)Nc2nc(-c3cn4ccnc4c(Cc4cc(F)ccc4F)n3)nc(N)c21 (centres unmarked) [Example 101-B]
Problem: Returns: the argument ( P or Q ) having the larger Emax. API: response body contains the label of the selected item.
Solution: P
(P: 112%, Q: 53%)

###

- subject_of_test: sGC α1/β1 heterodimer (Homo sapiens (Human), UniProt Q02108+Q02153)
- assay_explanation: Cell-based sGC functional assay (CASA assay), cGMP by HTRF
- condition_label: inflection point of cGMP production, 4P fit; CHO-K1/sGC cells; read-out: IP
- Description: Cell-Based sGC Functional Assay (Cyclic GMP Assay for sGC Activator: CASA Assay) Soluble guanylate cyclase (sGC) is a heme-containing enzyme that converts GTP to secondary messenger cGMP. […] A CHO-K1 cell line stably expressing the sGC α1/β1 heterodimer was generated using a standard transfection protocol. […] The level of intracellular cGMP was determined using an HTRF-based assay kit (CisBio, 62GM2PEC), which detects the displacement of a fluorescence labeled cGMP from its specific antibody. […]
pEC50: −log10 of the molar value.
endpoint: pEC50

Before answering, review these 5 worked examples.
| compound | pEC50 |
| --- | --- |
| CC(C)CCc1nc(-c2nc(N)c3c(n2)NC(=O)C3(C)c2ccc(Cl)c(O)c2)cn2ccnc12 (centres unmarked) | 6.65 |
| CC(C)CCc1nc(-c2nc(N)c3c(n2)NC(=O)C3(C)c2cc(O)c(Cl)c(F)c2)cn2ccnc12 (centres unmarked) | 6.19 |
| CC1(c2ccc(Cl)c(O)c2)C(=O)Nc2nc(-c3cn4c(N)cnc4c(Cc4cccc(F)c4)n3)nc(N)c21 (centres unmarked) | 6.09 |
| CC1(c2cc(O)c(Cl)c(F)c2)C(=O)Nc2nc(-c3cn4ncnc4c(Cc4ccccc4F)n3)nc(N)c21 (centres unmarked) | 7.60 |
| CC1(c2ccc(Cl)c(O)c2)C(=O)Nc2nc(-c3cn4ccnc4c(CCC4CCCCC4)n3)nc(N)c21 (centres unmarked) | 6.22 |

a. CC1CCC(Cc2nc(-c3nc(N)c4c(n3)NC(=O)C4(C)c3ccc(Cl)c(O)c3)cn3ccnc23)CC1 (centres unmarked) [Example 108-AB]
b. CC1(c2ccc(Cl)c(O)c2)C(=O)Nc2nc(-c3cn4ncnc4c(CCCC(F)(F)F)n3)nc(N)c21 (centres unmarked)
c. CC1(c2cc(O)c(Cl)c(F)c2)C(=O)Nc2nc(-c3cn4ncnc4c(CC4CCCCC4)n3)nc(N)c21 (centres unmarked)
d. CC1(c2ccc(O)cc2)C(=O)Nc2nc(-c3cn4ncnc4c(CCC(F)(F)C(F)(F)F)n3)nc(N)c21 (centres unmarked)
Problem: Hello, I need these entries ordered by pEC50, highest reading first. Thanks! Reply: labels, ordered per the request.
Solution: d, c, a, b
(d: 7.72, c: 7.02, a: 6.68, b: 6.03)

I. CCCCc1nc(-c2nc(N)c3c(n2)NC(=O)C3(C)c2cc(O)c(Cl)c(F)c2)cn2ncnc12 (centres unmarked)
II. CC1(c2cccc(O)c2)C(=O)Nc2nc(-c3cn4ccnc4c(Cc4ccccc4)n3)nc(N)c21 (centres unmarked)
III. CC1(c2ccc(Cl)c(O)c2)C(=O)Nc2nc(-c3cn4ccnc4c(Cc4cc(F)ccc4F)n3)nc(N)c21 (centres unmarked)
IV. CC1(c2cc(O)c(C#N)c(F)c2)C(=O)Nc2nc(-c3cn4ccnc4c(Cc4ccccc4F)n3)nc(N)c21 (centres unmarked)
Problem: I would appreciate it if you could sort these 4 compounds by pEC50, starting from the smallest number. Reply: labels, ordered per the request.
Solution: IV, II, I, III
(IV: 5.51, II: 6.11, I: 6.84, III: 7.11)

###

- subject_of_test: human recombinant sGC enzyme (Homo sapiens (Human), UniProt Q02108+Q02153)
- assay_explanation: SEC competition binding assay with [3H] Compound B radioligand
- condition_label: displacement of 1.6 nM [3H] Compound B, 24 h at 37° C.
pKi: −log10 of the molar value.
endpoint: pKi

Before answering, review these 3 worked examples.
| compound | measured |
| --- | --- |
| CC1(c2ccc(O)c(F)c2)C(=O)Nc2nc(-c3cn4ccnc4c(Cc4ccc(F)cc4)n3)nc(N)c21 (stereo not shown) | 9.54 |
| CC1(c2ccc(O)c(Cl)c2)C(=O)Nc2nc(-c3cn4ccnc4c(Cc4ccccc4F)n3)nc(N)c21 (stereo not shown) | 9.55 |
| CN1CCN(c2nc(-c3cn4ccnc4c(Cc4ccc(F)cc4)n3)nc3c2C(C)(c2ccc(Cl)c(O)c2)C(=O)N3)CC1 (stereo not shown) | 9.23 |

A. CCCCc1nc(-c2nc(N)c3c(n2)NC(=O)C3(C)c2cc(O)ccn2)cn2ncnc12 (stereo not shown)
B. CC1(c2ccc(O)c(F)c2)C(=O)Nc2nc(-c3cn4ccnc4c(Cc4cccc(F)c4)n3)nc(N)c21 (stereo not shown)
C. CC(C)CCc1nc(-c2nc(N)c3c(n2)NC(=O)C3(C)c2cc(O)ccn2)cn2ncnc12 (stereo not shown)
D. CC1(c2cc(O)c(Cl)cn2)C(=O)Nc2nc(-c3cn4ccnc4c(Cc4cc(F)cc(F)c4F)n3)nc(N)c21 (stereo not shown)
Problem: Hello, I need these entries ordered by pKi, highest reading first. Thanks! Reply: labels, ordered per the request.
Solution: D, B, C, A
